meta.source: the supplement of paper PMC9112550

test system: Escherichia coli TOP10; assay: shrunken log2 fold change of peptide-encoding DNA abundance (4.5 h post-induction vs induction); higher = less antimicrobial activity (less host growth inhibition); conditions: time post-induction: 4.5 h; library: site-saturation at positions 5, 18, 19, 20
Below, each of the sequences is paired with its reported shrunken log2 fold change value.

>  <sequence content>
RRIRGRPPRLPRPRPRPFRCPRP

>  <shrunken log2 fold change>
0.0939

$$$$
>  <sequence content>
RRIRWRPPRLPRPRPRPNYIPRP

>  <shrunken log2 fold change>
-0.57

$$$$
>  <sequence content>
RRIRNRPPRLPRPRPRPPNDPRP

>  <shrunken log2 fold change>
0.182

$$$$
>  <sequence content>
RRIRWRPPRLPRPRPRPDIAPRP

>  <shrunken log2 fold change>
0.0944

$$$$
>  <sequence content>
RRIRVRPPRLPRPRPRPEPEPRP

>  <shrunken log2 fold change>
0.515

$$$$
>  <sequence content>
RRIRNRPPRLPRPRPRPQTMPRP

>  <shrunken log2 fold change>
-0.238

$$$$
>  <sequence content>
RRIRCRPPRLPRPRPRPPRIPRP

>  <shrunken log2 fold change>
0.48

$$$$

----------
Below, each of the sequences is paired with its reported shrunken log2 fold change value.
tested on: Escherichia coli TOP10; experiment: shrunken log2 fold change of peptide-encoding DNA abundance (4.5 h post-induction vs induction); higher = less antimicrobial activity (less host growth inhibition); conditions: time post-induction: 4.5 h; library: site-saturation at positions 5, 18, 19, 20
property label: shrunken log2 fold change

>  <sequence content>
RRIRCRPPRLPRPRPRPKIEPRP

>  <property label>
shrunken log2 fold change

>  <numeric value>
-0.0736

$$$$
>  <sequence content>
RRIRFRPPRLPRPRPRPEADPRP

>  <property label>
shrunken log2 fold change

>  <numeric value>
0.24

$$$$
>  <sequence content>
RRIRSRPPRLPRPRPRPECMPRP

>  <property label>
shrunken log2 fold change

>  <numeric value>
0.00574

$$$$
>  <sequence content>
RRIRIRPPRLPRPRPRPPYAPRP

>  <property label>
shrunken log2 fold change

>  <numeric value>
-0.274

$$$$
>  <sequence content>
RRIRARPPRLPRPRPRPDWHPRP

>  <property label>
shrunken log2 fold change

>  <numeric value>
0.136

$$$$

----------
tested on: Escherichia coli TOP10; assay: shrunken log2 fold change of peptide-encoding DNA abundance (4.5 h post-induction vs induction); higher = less antimicrobial activity (less host growth inhibition); settings: time post-induction: 4.5 h; library: site-saturation at positions 5, 18, 19, 20
property label: shrunken log2 fold change

>  <sequence content>
RRIRNRPPRLPRPRPRPQNWPRP

>  <numeric value>
-0.146

$$$$
>  <sequence content>
RRIRFRPPRLPRPRPRPHMCPRP

>  <numeric value>
-1.24

$$$$
>  <sequence content>
RRIRFRPPRLPRPRPRPYFCPRP

>  <numeric value>
-1.05

$$$$
>  <sequence content>
RRIRKRPPRLPRPRPRPRPEPRP

>  <numeric value>
0.162

$$$$
>  <sequence content>
RRIRPRPPRLPRPRPRPFAKPRP

>  <numeric value>
0.0716

$$$$
>  <sequence content>
RRIRARPPRLPRPRPRPCLQPRP

>  <numeric value>
-0.0914

$$$$

----------
test system: Escherichia coli TOP10; test: shrunken log2 fold change of peptide-encoding DNA abundance (4.5 h post-induction vs induction); higher = less antimicrobial activity (less host growth inhibition); conditions: time post-induction: 4.5 h; library: site-saturation at positions 5, 18, 19, 20

>  <sequence content>
RRIRPRPPRLPRPRPRPEDFPRP

>  <shrunken log2 fold change>
-0.0193

$$$$
>  <sequence content>
RRIRRRPPRLPRPRPRPKHEPRP

>  <shrunken log2 fold change>
0.0619

$$$$
>  <sequence content>
RRIRPRPPRLPRPRPRPSADPRP

>  <shrunken log2 fold change>
-0.0256

$$$$
>  <sequence content>
RRIRRRPPRLPRPRPRPTWWPRP

>  <shrunken log2 fold change>
0.57

$$$$
>  <sequence content>
RRIRDRPPRLPRPRPRPIVCPRP

>  <shrunken log2 fold change>
0.0446

$$$$
>  <sequence content>
RRIRFRPPRLPRPRPRPYTQPRP

>  <shrunken log2 fold change>
-0.152

$$$$
>  <sequence content>
RRIRERPPRLPRPRPRPNWAPRP

>  <shrunken log2 fold change>
0.0312

$$$$
>  <sequence content>
RRIRSRPPRLPRPRPRPGQCPRP

>  <shrunken log2 fold change>
0.0202

$$$$
>  <sequence content>
RRIRYRPPRLPRPRPRPSYWPRP

>  <shrunken log2 fold change>
-0.716

$$$$
>  <sequence content>
RRIRRRPPRLPRPRPRPAHFPRP

>  <shrunken log2 fold change>
0.0399

$$$$
>  <sequence content>
RRIRVRPPRLPRPRPRPFIAPRP

>  <shrunken log2 fold change>
-0.448

$$$$
>  <sequence content>
RRIRWRPPRLPRPRPRPQSFPRP

>  <shrunken log2 fold change>
-0.108

$$$$
>  <sequence content>
RRIRNRPPRLPRPRPRPAEMPRP

>  <shrunken log2 fold change>
-0.00992

$$$$
>  <sequence content>
RRIRTRPPRLPRPRPRPSSCPRP

>  <shrunken log2 fold change>
-0.222

$$$$
>  <sequence content>
RRIRIRPPRLPRPRPRPFWHPRP

>  <shrunken log2 fold change>
-0.275

$$$$
>  <sequence content>
RRIRCRPPRLPRPRPRPEGEPRP

>  <shrunken log2 fold change>
3.03

$$$$
>  <sequence content>
RRIRSRPPRLPRPRPRPRNCPRP

>  <shrunken log2 fold change>
0.5

$$$$

----------
test system: Escherichia coli TOP10; experiment: shrunken log2 fold change of peptide-encoding DNA abundance (4.5 h post-induction vs induction); higher = less antimicrobial activity (less host growth inhibition); conditions: time post-induction: 4.5 h; library: site-saturation at positions 5, 18, 19, 20

>  <sequence content>
RRIRIRPPRLPRPRPRPKCIPRP

>  <shrunken log2 fold change>
-0.399

$$$$
>  <sequence content>
RRIRYRPPRLPRPRPRPACIPRP

>  <shrunken log2 fold change>
-0.389

$$$$
>  <sequence content>
RRIRRRPPRLPRPRPRPEAWPRP

>  <shrunken log2 fold change>
0.14

$$$$
>  <sequence content>
RRIRERPPRLPRPRPRPYTAPRP

>  <shrunken log2 fold change>
-0.662

$$$$
>  <sequence content>
RRIRCRPPRLPRPRPRPLMRPRP

>  <shrunken log2 fold change>
0.715

$$$$
>  <sequence content>
RRIRFRPPRLPRPRPRPKNYPRP

>  <shrunken log2 fold change>
-0.525

$$$$
>  <sequence content>
RRIRWRPPRLPRPRPRPRADPRP

>  <shrunken log2 fold change>
0.667

$$$$
>  <sequence content>
RRIRFRPPRLPRPRPRPFIDPRP

>  <shrunken log2 fold change>
-0.389

$$$$
>  <sequence content>
RRIRHRPPRLPRPRPRPNLDPRP

>  <shrunken log2 fold change>
-1.17

$$$$

----------
system: Escherichia coli TOP10; test: shrunken log2 fold change of peptide-encoding DNA abundance (4.5 h post-induction vs induction); higher = less antimicrobial activity (less host growth inhibition); settings: time post-induction: 4.5 h; library: site-saturation at positions 5, 18, 19, 20
property label: shrunken log2 fold change

>  <sequence content>
RRIRLRPPRLPRPRPRPNGEPRP

>  <property label>
shrunken log2 fold change

>  <numeric value>
0.00184

$$$$
>  <sequence content>
RRIRRRPPRLPRPRPRPTRGPRP

>  <property label>
shrunken log2 fold change

>  <numeric value>
0.661

$$$$
>  <sequence content>
RRIRFRPPRLPRPRPRPRFIPRP

>  <property label>
shrunken log2 fold change

>  <numeric value>
-0.498

$$$$

----------
test system: Escherichia coli TOP10; assay: shrunken log2 fold change of peptide-encoding DNA abundance (4.5 h post-induction vs induction); higher = less antimicrobial activity (less host growth inhibition); details: time post-induction: 4.5 h; library: site-saturation at positions 5, 18, 19, 20;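 also: peptides expressed intracellularly from a pBAD plasmid library in pooled LB shake-flask culture, induced with 0.3% L-arabinose, DNA abundance read by NGS, three biological replicates, DESeq2 with apeglm shrinkage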
Below, each of the sequences is paired with its reported shrunken log2 fold change value.
property label: shrunken log2 fold change

>  <sequence content>
RRIRKRPPRLPRPRPRPECRPRP

>  <result>
0.313

$$$$
>  <sequence content>
RRIRERPPRLPRPRPRPSYKPRP

>  <result>
-1.27

$$$$
>  <sequence content>
RRIRERPPRLPRPRPRPWYGPRP

>  <result>
-1.02

$$$$
>  <sequence content>
RRIRERPPRLPRPRPRPANDPRP

>  <result>
-0.0189

$$$$
>  <sequence content>
RRIRRRPPRLPRPRPRPSSCPRP

>  <result>
0.055

$$$$
>  <sequence content>
RRIRIRPPRLPRPRPRPWKAPRP

>  <result>
-0.00804

$$$$
>  <sequence content>
RRIRQRPPRLPRPRPRPWPHPRP

>  <result>
0.172

$$$$
>  <sequence content>
RRIRQRPPRLPRPRPRPHHDPRP

>  <result>
-0.000328

$$$$
>  <sequence content>
RRIRGRPPRLPRPRPRPVVFPRP

>  <result>
0.56

$$$$
>  <sequence content>
RRIRWRPPRLPRPRPRPWKAPRP

>  <result>
-0.00884

$$$$
>  <sequence content>
RRIRRRPPRLPRPRPRPEPAPRP

>  <result>
0.812

$$$$
>  <sequence content>
RRIRTRPPRLPRPRPRPSNRPRP

>  <result>
-0.0802

$$$$
>  <sequence content>
RRIRMRPPRLPRPRPRPWVWPRP

>  <result>
0.169

$$$$
>  <sequence content>
RRIRYRPPRLPRPRPRPLHGPRP

>  <result>
-0.0615

$$$$
>  <sequence content>
RRIRVRPPRLPRPRPRPGPIPRP

>  <result>
0.0476

$$$$
>  <sequence content>
RRIRMRPPRLPRPRPRPACSPRP

>  <result>
0.551

$$$$
>  <sequence content>
RRIRSRPPRLPRPRPRPWDEPRP

>  <result>
-0.0358

$$$$
>  <sequence content>
RRIRTRPPRLPRPRPRPMRRPRP

>  <result>
0.00555

$$$$
>  <sequence content>
RRIRDRPPRLPRPRPRPMLYPRP

>  <result>
-0.0839

$$$$
>  <sequence content>
RRIRLRPPRLPRPRPRPQCFPRP

>  <result>
-0.0127

$$$$
>  <sequence content>
RRIRKRPPRLPRPRPRPPDSPRP

>  <result>
0.189

$$$$
>  <sequence content>
RRIRGRPPRLPRPRPRPYYKPRP

>  <result>
-0.607

$$$$
>  <sequence content>
RRIRQRPPRLPRPRPRPPGNPRP

>  <result>
0.246

$$$$
>  <sequence content>
RRIRPRPPRLPRPRPRPCWAPRP

>  <result>
0.21

$$$$
>  <sequence content>
RRIRARPPRLPRPRPRPKENPRP

>  <result>
0.379

$$$$
>  <sequence content>
RRIRIRPPRLPRPRPRPMDGPRP

>  <result>
-0.108

$$$$
>  <sequence content>
RRIRVRPPRLPRPRPRPQILPRP

>  <result>
-0.451

$$$$
>  <sequence content>
RRIRSRPPRLPRPRPRPWWVPRP

>  <result>
-0.2

$$$$
>  <sequence content>
RRIRYRPPRLPRPRPRPKDMPRP

>  <result>
0.0203

$$$$
>  <sequence content>
RRIRQRPPRLPRPRPRPQKIPRP

>  <result>
-0.29

$$$$
>  <sequence content>
RRIRNRPPRLPRPRPRPDMVPRP

>  <result>
0.00433

$$$$
>  <sequence content>
RRIRHRPPRLPRPRPRPEQQPRP

>  <result>
0.096

$$$$
>  <sequence content>
RRIRHRPPRLPRPRPRPVTTPRP

>  <result>
0.0639

$$$$
>  <sequence content>
RRIRGRPPRLPRPRPRPIAWPRP

>  <result>
1.05

$$$$
>  <sequence content>
RRIRPRPPRLPRPRPRPSRWPRP

>  <result>
0.611

$$$$
>  <sequence content>
RRIRPRPPRLPRPRPRPSGVPRP

>  <result>
-0.0831

$$$$
>  <sequence content>
RRIRCRPPRLPRPRPRPSLWPRP

>  <result>
-0.0313

$$$$
>  <sequence content>
RRIRVRPPRLPRPRPRPMLNPRP

>  <result>
-0.135

$$$$
>  <sequence content>
RRIRGRPPRLPRPRPRPWMKPRP

>  <result>
0.0546

$$$$
>  <sequence content>
RRIRCRPPRLPRPRPRPHEEPRP

>  <result>
0.0524

$$$$
>  <sequence content>
RRIRPRPPRLPRPRPRPNMLPRP

>  <result>
-0.367

$$$$
>  <sequence content>
RRIRVRPPRLPRPRPRPNDYPRP

>  <result>
-0.00419

$$$$
